protocol-summary: E. coli DRC41 culture turbidity changes, primary screen, E. coli filamentation inducer project, strain DRC41, OD650, 48 h (AID 1152);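 also: E. coli MC1000 strain DRC41 lacking acrAB efflux pump and sulA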
cond: E. coli DRC41 (acrAB sulA), higher = more signal, called active from +8 up or from −8 down
Activity calls are given as the source filed them.
Please go through the items and note down their z-score.

[[record]]
molecule = "COC(=O)[C@@]1(Cc2ccc(F)cc2)[C@H]2c3cc(C(=O)N4CCCC4)n(CCSCCO)c3C[C@H]2CN1C(=O)c1ccccc1"
val = "-0.683 (inactive)"

[[record]]
molecule = "CC[C@@H]1C=C(C(=O)O)[C@H](c2cccc(Cl)c2)N1S(=O)(=O)c1ccc(C)cc1"
val = "-1.23 (inactive)"

[[record]]
molecule = "COC(=O)C(CC#Cc1ccc2c(c1)[C@]1(C(=O)N2)[C@H](c2ccccc2OCCO)N2[C@H](c3ccccc3)[C@H](c3ccccc3)OC(=O)[C@H]2[C@@H]1C(=O)N1CCN(c2ncccn2)CC1)C(=O)OC"
val = "-0.577 (inactive)"

[[record]]
molecule = "COC(=O)C(CC#Cc1ccc2c(c1)[C@]1(C(=O)N2)[C@H](C(=O)NC[C@H](O)c2ccccc2)[C@H]2C(=O)O[C@H](c3ccccc3)[C@H](c3ccccc3)N2[C@@H]1c1ccc(O)cc1)C(=O)OC"
val = "-1.21 (inactive)"


Hello, I would appreciate it if you could give z-score for each entry below.
1. COCCOC(=O)N1C(=O)[C@@]2(c3cc(C#CCNC(N)=O)ccc31)[C@H](C(=O)Nc1nc3ccccc3s1)[C@H]1C(=O)O[C@H](c3ccccc3)[C@H](c3ccccc3)N1[C@@H]2c1ccc(O)cc1
2. COCCCNC(=O)[C@@]1(Cc2ccccc2I)c2ccccc2C(=O)N(C2CCCCC2)[C@H]1c1ccc(CO)cc1
3. COC(=O)[C@@]1(Cc2ccc(F)cc2)[C@H]2c3cc(C(=O)N(C)C)n(Cc4ccc(C(F)(F)F)nc4)c3C[C@H]2CN1C(=O)c1ccccc1
4. COc1ccc([Si](C)(C)[C@H]2[C@H](CC(=O)N3CCC[C@H]3CO)O[C@@]3(C(=O)N(C)c4c(Br)cc(C)cc43)[C@@H]2C)cc1
5. COC(=O)[C@@]1(Cc2ccc(F)cc2)[C@H]2c3cc(C(=O)N4CCCC4)n(Cc4ccc(OC(F)(F)F)cc4)c3C[C@H]2CN1C(=O)c1ccccc1
6. CN1C(=O)C2C=CC(C(O)c3ccc([N+](=O)[O-])cc3)N(Nc3ccccc3)C2C1=O (stereo unspecified)
7. O=C1c2ccccc2[C@](Cc2ccccc2I)(C(=O)NCCN2CCOCC2)[C@H](c2ccc(CO)cc2)N1Cc1ccccc1C(F)(F)F

Solution:
["-0.614 (inactive)", "0.0773 (inactive)", "-1 (inactive)", "-0.437 (inactive)", "-2.47 (inactive)", "-1.93 (inactive)", "-2.6 (inactive)"]

---

Please go through the items and note down their z-score.
protocol-summary: inhibitors of hydroxyurea-induced Chk1 phosphorylation, primary screen, imaging, HeLa, phospho-Chk1 antibody, percent positive cells (AID 1186)
cond: hydroxyurea-induced phospho-Chk1 immunofluorescence imaging, higher = more signal
Numbers only.

Consider the following illustrative entries.
[[record]]
molecule = "C=C[C@H](OC)[C@@H](O)c1ccc(OC)c(O)c1"
val = 0.171

[[record]]
molecule = "CCCCC(=C=CC[C@@H](O)c1ccccc1OCCO)C[C@@H](O)c1ccccn1"
val = -0.0323

[[record]]
molecule = "C=C(/C=C\\CNS(=O)(=O)c1ccc(C)cc1)[C@H](O)[C@H]1CCCN1S(=O)(=O)c1ccccc1[N+](=O)[O-]"
val = -0.225

[[record]]
molecule = "COc1cc(Cc2cc3c(c(CCc4ccccc4)n2)[Si](C(C)C)(C(C)C)O[C@H]3c2ccccc2)cc(OC)c1OC"
val = -0.167

[[record]]
molecule = "COc1cc2c(cc1OC)CN(C(=O)[C@@H]1[C@H]3C(=O)O[C@H](c4ccccc4)[C@H](c4ccccc4)N3[C@H](c3ccc(O)cc3)[C@@]13C(=O)Nc1ccc(C#CC4=CCCCC4)cc13)CC2"
val = 0.0655

[[record]]
molecule = "COc1ccc([Si](C)(C)[C@H]2[C@H](CCO)O[C@@]3(C(=O)N(Cc4ccccc4)c4ccc(NC(=O)[C@H](C)O)cc43)[C@@H]2C)cc1"
val = -1.59

[[record]]
molecule = "O=C1O[C@H](c2ccccc2)[C@H](c2ccccc2)N2[C@H]1[C@@H](C(=O)O)[C@]1(C(=O)Nc3ccccc31)[C@H]2c1ccc(OCCO)cc1"
val = 0.618

[[record]]
molecule = "CC(C)c1ccc(NN2C(C(O)C3=C[C@H]4C[C@@H](C3)C4(C)C)C=CC3C(=O)N(c4ccccc4)C(=O)C32)cc1 (stereo partly specified)"
val = -0.0307

[[record]]
molecule = "[N-]=[N+]=NCc1ccccc1[C@H]1OC(c2ccc(OCCCO)cc2)=N[C@@]1(Cc1ccccc1N=[N+]=[N-])C(N)=O"
val = 0.052

[[record]]
molecule = "COCCOC(=O)N1C(=O)[C@@]2(c3cc(C#CCNC(N)=O)ccc31)[C@H](C(N)=O)[C@H]1C(=O)O[C@H](c3ccccc3)[C@H](c3ccccc3)N1[C@@H]2c1ccc(O)cc1"
val = 0.319


Hello, I would appreciate it if you could give z-score for each entry below.
1. NCCCCCCNC(=O)[C@@H]1C[C@@H]2C(=O)NCC(=O)N2[C@@H]1c1cccc(OCCO)c1
2. COc1cc(CO)cc(I)c1O[C@H]1C=C(C(=O)NCCO)C[C@@H](N(CCN2CCOCC2)C(=O)C2CCCO2)[C@@H]1O (stereo partly specified)
3. CO[C@H]1O[C@H](CO)[C@@H](OC(=O)Nc2ccccc2)[C@@H]2OC(=O)[C@@H](Cc3ccccc3)C/C=C/C[C@H](Cc3ccccc3)C(=O)O[C@@H]12
4. C=CCNC(=O)[C@H]1[C@@H]2C(=O)O[C@@H](c3ccccc3)[C@@H](c3ccccc3)N2[C@@H](c2ccc(OCCO)cc2)[C@]12C(=O)Nc1ccc(C#Cc3ccc(OC)cc3)cc12

Solution:
1: 0.13; 2: -0.866; 3: -0.741; 4: 0.165

Hello, I would appreciate it if you could give z-score for each entry below.
1. CCCCC(=C=CC[C@H](O)c1cccc(OCCO)c1)C[C@H](O)c1cc(Cl)cc(Cl)c1O
2. COC(=O)[C@@]1(Cc2ccc(F)cc2)[C@H]2c3cc(C(=O)N4CCCC4)n(Cc4ccc(C(F)(F)F)nc4)c3C[C@H]2CN1C(=O)c1ccccc1

Solution:
-0.755
0.278
